Where do the numbers come from? From patent US20240158370A1.

molecular target: CK1α (Homo sapiens, UniProt P48729+Q96SW2); construct: CSNK1A1-HiBit KI HEK293(LgBit) Cells; host or cells: HEK293(LgBit) knock-in cells; test: HiBiT degradation assay, CK1α, Procedure A; format: cell-based; conditions: six hours
Sequence (P48729 whole entry): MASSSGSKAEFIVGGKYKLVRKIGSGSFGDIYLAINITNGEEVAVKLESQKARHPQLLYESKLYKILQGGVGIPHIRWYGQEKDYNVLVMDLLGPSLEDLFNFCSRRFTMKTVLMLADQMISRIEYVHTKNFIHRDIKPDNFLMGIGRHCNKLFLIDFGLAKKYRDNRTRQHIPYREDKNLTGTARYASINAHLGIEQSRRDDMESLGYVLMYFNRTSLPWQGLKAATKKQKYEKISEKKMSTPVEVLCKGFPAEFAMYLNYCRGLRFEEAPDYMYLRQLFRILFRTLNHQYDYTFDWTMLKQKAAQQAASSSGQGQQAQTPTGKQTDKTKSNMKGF
Sequence (Q96SW2 whole entry): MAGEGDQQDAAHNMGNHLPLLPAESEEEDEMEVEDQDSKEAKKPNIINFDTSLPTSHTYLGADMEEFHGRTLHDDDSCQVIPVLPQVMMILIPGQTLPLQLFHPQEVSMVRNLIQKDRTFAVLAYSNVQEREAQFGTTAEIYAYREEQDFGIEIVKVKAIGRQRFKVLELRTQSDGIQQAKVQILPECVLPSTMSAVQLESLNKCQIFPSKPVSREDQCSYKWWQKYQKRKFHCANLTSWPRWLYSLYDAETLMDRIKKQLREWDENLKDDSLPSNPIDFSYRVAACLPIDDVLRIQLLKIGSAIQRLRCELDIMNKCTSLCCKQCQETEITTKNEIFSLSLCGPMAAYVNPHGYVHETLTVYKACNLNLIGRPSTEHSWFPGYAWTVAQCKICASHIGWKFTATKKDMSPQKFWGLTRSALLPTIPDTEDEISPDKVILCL
Sequence (Q16531 whole entry partner): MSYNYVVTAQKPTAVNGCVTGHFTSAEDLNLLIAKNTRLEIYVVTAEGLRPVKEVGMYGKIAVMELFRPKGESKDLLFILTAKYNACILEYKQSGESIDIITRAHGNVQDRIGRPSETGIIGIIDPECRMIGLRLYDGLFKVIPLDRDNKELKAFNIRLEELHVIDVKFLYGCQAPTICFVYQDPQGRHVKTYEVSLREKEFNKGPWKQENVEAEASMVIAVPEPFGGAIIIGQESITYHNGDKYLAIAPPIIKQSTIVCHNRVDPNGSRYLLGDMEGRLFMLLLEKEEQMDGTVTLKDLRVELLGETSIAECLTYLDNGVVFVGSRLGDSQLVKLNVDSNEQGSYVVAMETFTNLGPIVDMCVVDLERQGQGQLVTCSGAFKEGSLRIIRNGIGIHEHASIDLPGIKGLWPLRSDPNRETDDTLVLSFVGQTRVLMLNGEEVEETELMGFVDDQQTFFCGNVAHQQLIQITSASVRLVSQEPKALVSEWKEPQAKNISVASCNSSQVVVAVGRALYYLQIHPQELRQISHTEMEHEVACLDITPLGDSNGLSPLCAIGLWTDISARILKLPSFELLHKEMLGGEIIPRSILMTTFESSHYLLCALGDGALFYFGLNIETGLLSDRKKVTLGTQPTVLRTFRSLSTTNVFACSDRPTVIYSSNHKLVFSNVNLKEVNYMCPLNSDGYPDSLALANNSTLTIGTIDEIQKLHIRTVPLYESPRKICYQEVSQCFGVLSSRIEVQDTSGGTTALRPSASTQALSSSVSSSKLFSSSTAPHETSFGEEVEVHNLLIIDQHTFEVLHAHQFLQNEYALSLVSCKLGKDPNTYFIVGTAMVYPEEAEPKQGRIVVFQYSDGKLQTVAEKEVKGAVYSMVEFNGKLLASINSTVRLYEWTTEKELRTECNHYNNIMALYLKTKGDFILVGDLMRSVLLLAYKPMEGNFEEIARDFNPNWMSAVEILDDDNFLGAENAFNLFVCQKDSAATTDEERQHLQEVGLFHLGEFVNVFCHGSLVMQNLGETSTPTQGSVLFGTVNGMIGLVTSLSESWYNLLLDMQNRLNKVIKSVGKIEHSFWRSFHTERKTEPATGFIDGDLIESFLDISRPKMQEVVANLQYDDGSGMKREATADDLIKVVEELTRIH
PROPERTY_LABEL: DC50

Consider the following illustrative entries.
Cn1ncc(-c2ccc3c(c2)CN(C2CCC(=O)NC2=O)C3=O)c1C1=CCOCC1 (stereo not shown) : < 25 nM
Cc1nc(-c2ccc3c(c2)CN(C2CCC(=O)NC2=O)C3=O)c(-c2cncnc2)n1C (stereo not shown) : ≥ 25 nM
Cc1c(-c2c(-c3ccc4c(c3)CN(C3CCC(=O)NC3=O)C4=O)cnn2C)cnn1-c1ccccc1 (stereo not shown) : ≥ 25 nM
Cn1nc(-c2ccc3c(c2)CN(C2CCC(=O)NC2=O)C3=O)cc1-c1cncnc1 (stereo not shown) : ≥ 25 nM
Cn1cnc(-c2ccc3c(c2)CN(C2CCC(=O)NC2=O)C3=O)c1-c1ccc(N2CCCCC2)nc1 (stereo not shown) : < 25 nM

Please look at the following compound next.
input: Item COc1cc(Cl)ccc1-c1nc(-c2ccc3c(c2)CN(C2CCC(=O)NC2=O)C3=O)cn1C (stereo not shown) with CK1α (Homo sapiens, UniProt P48729+Q96SW2) - DC50?
output: < 25 nM

====

Known DC50 of a selection of compounds
molecular target: CK1α (Homo sapiens, UniProt P48729+Q96SW2); construct: CSNK1A1-HiBit KI HEK293(LgBit) Cells; host or cells: HEK293(LgBit) knock-in cells; test: HiBiT degradation assay, CK1α, Procedure A; assay type: cell-based; details: six hours

Cn1cc(-c2ccc3c(c2)CN(C2CCC(=O)NC2=O)C3=O)nc1C1CCC(C)(C)CC1 (stereo not shown) [Example 539] : < 25 nM
COc1ccsc1-c1c(-c2ccc3c(c2)CN(C2CCC(=O)NC2=O)C3=O)ncn1C (stereo not shown) [Example 508] : < 25 nM
Cn1cnc(-c2ccc3c(c2)CN(C2CCC(=O)NC2=O)C3=O)c1-c1ccc2cnn(C)c2c1 (stereo not shown) [Example 498] : < 25 nM

input: GET /values?readout=DC50&system=CK1α (Homo sapiens, UniProt P48729+Q96SW2)&item= Cn1cnc(-c2ccc3c(c2)CN(C2CCC(=O)NC2=O)C3=O)c1-c1cnn(CC(F)F)c1 (stereo not shown) [Example 497]
output: ≥ 25 nM

input: Could you share what DC50 was measured for Cn1nc(-c2ccc3c(c2)CN(C2CCC(=O)NC2=O)C3=O)nc1N1CCCCC1 (stereo not shown) [Example 554] , tested on CK1α (Homo sapiens, UniProt P48729+Q96SW2)?
output: < 25 nM

input: Give the reported DC50 for Cn1cc(-c2ccc3c(c2)CN(C2CCC(=O)NC2=O)C3=O)nc1[C@H]1CC[C@H](C)CC1 (stereo partly shown) [Example 715] (system: CK1α (Homo sapiens, UniProt P48729+Q96SW2)).
output: < 25 nM

input: Observed DC50 on CK1α (Homo sapiens, UniProt P48729+Q96SW2) for Cc1nc2ccc(-c3c(-c4ccc5c(c4)CN(C4CCC(=O)NC4=O)C5=O)cnn3C)cc2[nH]1 (stereo not shown) [Example 391] , please.
output: ≥ 25 nM

input: Request - read-out DC50 | tested on CK1α (Homo sapiens, UniProt P48729+Q96SW2) | compound Cn1cc(-c2ccc3c(c2)CN(C2CCC(=O)NC2=O)C3=O)nc1C12CCC(CC1)CC2 (stereo not shown) [Example 718]
output: < 25 nM

input: Please tell me: DC50 of Cn1cc(-c2ccc3c(c2)CN(C2CCC(=O)NC2=O)C3=O)nc1C12CCN(CC1)CC2 (stereo not shown) [Example 719] , system CK1α (Homo sapiens, UniProt P48729+Q96SW2)?
output: ≥ 25 nM

====

The compounds listed here are annotated with their DC50.
molecular target: GSPT1 (Homo sapiens, UniProt P15170+Q96SW2); test: HiBiT degradation assay, GSPT1, Procedure B (Molt 4_hGSPT1_HiBIT cells); type: cell-based; parameters: Molt 4_hGSPT1_HiBIT N-terminus tagged cells were generated using CRISPR technology; endogenous in cells; host or cells: Molt 4 cells, CRISPR-edited; details: six hours
Sequence (P15170 whole entry, one chain of several): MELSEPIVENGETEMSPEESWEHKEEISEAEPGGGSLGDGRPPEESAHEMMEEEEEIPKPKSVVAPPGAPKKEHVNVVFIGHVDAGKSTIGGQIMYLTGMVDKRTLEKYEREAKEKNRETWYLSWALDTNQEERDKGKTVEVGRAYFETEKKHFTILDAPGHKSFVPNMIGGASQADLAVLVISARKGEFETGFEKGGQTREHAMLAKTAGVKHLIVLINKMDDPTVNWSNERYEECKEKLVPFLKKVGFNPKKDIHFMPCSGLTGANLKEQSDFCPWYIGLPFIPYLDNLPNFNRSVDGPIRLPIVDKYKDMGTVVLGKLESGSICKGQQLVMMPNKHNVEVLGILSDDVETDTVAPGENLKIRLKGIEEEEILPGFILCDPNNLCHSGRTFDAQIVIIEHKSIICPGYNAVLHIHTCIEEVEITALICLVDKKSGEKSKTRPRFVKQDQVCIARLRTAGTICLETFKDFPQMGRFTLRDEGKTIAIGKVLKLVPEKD

Cn1cc(-c2ccc3c(c2)CN(C2CCC(=O)NC2=O)C3=O)nc1-c1ccc(Cl)c(F)c1 (centres unmarked) [Example 661] : ≥ 25 nM

input: Reported DC50 for GSPT1 (Homo sapiens, UniProt P15170+Q96SW2), given Cn1cc(-c2ccc3c(c2)CN(C2CCC(=O)NC2=O)C3=O)nc1-c1ccc(Cl)cc1F (centres unmarked) [Example 644] ?
output: ≥ 25 nM

input: Please state recorded DC50 (tested on GSPT1 (Homo sapiens, UniProt P15170+Q96SW2)) of Cn1cc(-c2ccc3c(c2)CN(C2CCC(=O)NC2=O)C3=O)nc1-c1ccc(F)c(C#N)c1 (centres unmarked) [Example 677]
output: ≥ 25 nM

input: Checklist item: DC50 tested on GSPT1 (Homo sapiens, UniProt P15170+Q96SW2), entry O=C1CCC(N2Cc3cc(-c4nc(C(F)F)oc4-c4ccccc4)ccc3C2=O)C(=O)N1 (centres unmarked) [Example 735] , value?
output: < 25 nM

input: API: value(readout=DC50, system=GSPT1 (Homo sapiens, UniProt P15170+Q96SW2)) for record Cc1nc(-c2ccc3c(c2)CN(C2CCC(=O)NC2=O)C3=O)nn1-c1ccccc1 (centres unmarked) [Example 712]
output: < 25 nM

input: Enter reported DC50 observed with GSPT1 (Homo sapiens, UniProt P15170+Q96SW2) for CCc1cn(-c2ccccc2)c(-c2ccc3c(c2)CN(C2CCC(=O)NC2=O)C3=O)n1 (centres unmarked) [Example 730]
output: < 25 nM

input: Write down the reported DC50 of Cn1cc(-c2ccc3c(c2)CN(C2CCC(=O)NC2=O)C3=O)nc1-c1ccc(C#N)c(F)c1 (centres unmarked) [Example 655] , test system: GSPT1 (Homo sapiens, UniProt P15170+Q96SW2).
output: ≥ 25 nM

input: Notebook: pull reported DC50 for GSPT1 (Homo sapiens, UniProt P15170+Q96SW2), entry COc1ccccc1-c1nc(-c2ccc3c(c2)CN(C2CCC(=O)NC2=O)C3=O)cn1C (centres unmarked) [Example 673]
output: < 25 nM

====

target: CK1α (Homo sapiens, UniProt P48729+Q96SW2); construct: CSNK1A1-HiBit KI HEK293(LgBit) Cells; host or cells: HEK293(LgBit) knock-in cells; experiment: HiBiT degradation assay, CK1α, Procedure A; type: cell-based; conditions: six hours incubation
PROPERTY_LABEL: DC50

Below are worked cases with known answers.
Cn1cnc(-c2ccc3c(c2)CN(C2CCC(=O)NC2=O)C3=O)c1-c1cc(Cl)ccc1Cl (stereo not shown) : < 25 nM
COc1cccc(-c2c(-c3ccc4c(c3)CN(C3CCC(=O)NC3=O)C4=O)ncn2C)c1 (stereo not shown) : < 25 nM
CCn1nc(-c2ccccc2)c(-c2ccc3c(c2)CN(C2CCC(=O)NC2=O)C3=O)n1 (stereo not shown) : < 25 nM
COc1cc(C#N)ccc1-c1c(-c2ccc3c(c2)CN(C2CCC(=O)NC2=O)C3=O)ncn1C (stereo not shown) : ≥ 25 nM
CNC(=O)c1cccc(-c2c(-c3ccc4c(c3)CN(C3CCC(=O)NC3=O)C4=O)ncn2C)c1 (stereo not shown) : ≥ 25 nM
Cn1ncc(-c2ccc3c(c2)CN(C2CCC(=O)NC2=O)C3=O)c1-c1ccccc1N (stereo not shown) : < 25 nM
Cn1cnc(-c2ccc3c(c2)CN([C@@H]2CCC(=O)NC2=O)C3=O)c1-c1ccc(F)cc1 : < 25 nM
Cc1ccc(-c2c(-c3ccc4c(c3)CN(C3CCC(=O)NC3=O)C4=O)cnn2C)s1 (stereo not shown) : < 25 nM

input: Need DC50 of Cn1cnc(-c2ccc3c(c2)CN(C2CCC(=O)NC2=O)C3=O)c1-c1ccnn1C (stereo not shown) , thanks.
output: < 25 nM

input: Please report the recorded DC50 for Cn1ncc(-c2ccc3c(c2)CN(C2CCC(=O)NC2=O)C3=O)c1-c1ccccc1C(F)(F)F (stereo not shown) .
output: < 25 nM

input: Given the compound Cn1cnc(-c2ccc3c(c2)CN(C2CCC(=O)NC2=O)C3=O)c1-c1ccc(CN2CCOCC2)cc1 (stereo not shown) , what is its reported DC50?
output: < 25 nM

input: I am curious: what DC50 value has been reported for O=C1CCC(N2Cc3cc(-c4ncsc4-c4ccccc4)ccc3C2=O)C(=O)N1 (stereo not shown) ?
output: < 25 nM

input: Can you share its DC50? I mean this compound: Cn1cnc(-c2ccc3c(c2)CN(C2CCC(=O)NC2=O)C3=O)c1-c1ccc(OCCCN2CCOCC2)cc1 (stereo not shown)
output: < 25 nM

input: I'd like to know its DC50. The compound in question is Cc1ccc(-c2c(-c3ccc4c(c3)CN(C3CCC(=O)NC3=O)C4=O)ncn2C)c(Cl)c1 (stereo not shown)
output: < 25 nM

input: For the compound shown here, Cn1cnc(-c2ccc3c(c2)CN(C2CCC(=O)NC2=O)C3=O)c1-c1cc(Cl)cc(C#N)c1 (stereo not shown) , give the reported DC50.
output: ≥ 25 nM
